test system: RPMI-8226; assay: NCI tumour cell line growth inhibition, 48 h
The source made the active and inactive calls. Cut-off read from the data, not from the text of the source: active = GI50 up to about 1.1 µM and inactive = higher.
Possible outcomes: 1 = active, 0 = inactive

[[record]]
compound = "CCOC(=O)/C1=C(\\C)N(c2ccc(C)cc2)C(=O)c2ccccc2C(=O)c2c(OC(C)=O)ccc(OC(C)=O)c21"
label_value = 0

[[record]]
compound = "CN(C)CCCNC(=O)CCNC(=O)c1cc(NC(=O)c2cc(NC(=O)c3cc(NC(=O)c4nc(NC(=O)CCCNC(=O)c5cc(NC(=O)c6cc(NC(=O)c7cc(NC(=O)c8nccn8C)cn7C)cn6C)cn5C)cn4C)cn3C)cn2C)cn1C"
label_value = 0

[[record]]
compound = "COC1CC(OS(=O)(=O)c2ccc(C)cc2)C(OC(=O)c2ccccc2)C(C)O1 (centres undefined)"
label_value = 0

[[record]]
compound = "COc1ccc(C(=O)N2c3ccccc3N(C)n3cccc3C2CC(=O)O)cc1 (centres undefined)"
label_value = 0

[[record]]
compound = "NC(Cc1nnn[nH]1)C(=O)O (centres undefined)"
label_value = 0

[[record]]
compound = "COc1ccc(-c2nnc(-c3c(C)n(C)n(-c4ccccc4)c3=O)o2)cc1"
label_value = 0

[[record]]
compound = "c1ccc2c3c(ccc2c1)CSCc1ccc2ccccc2c1-3"
label_value = 0

[[record]]
compound = "COc1ccc(C2(Cl)C(Cl)(C(F)(F)F)C2(Cl)C(F)(F)F)cc1 (centres undefined)"
label_value = 0

[[record]]
compound = "CC(C)CCNC(=O)c1ccc(CNC(=O)/C=C/c2ccc(OCc3ccccc3)cc2)cc1"
label_value = 0

[[record]]
compound = "CN1CCC2(c3ccccc3)CC(=O)/C(=C/c3ccc(Cl)c(Cl)c3)C1C2.[O-][Cl+3]([O-])([O-])O (centres undefined)"
label_value = 0

[[record]]
compound = "CC(C)=CCCc1c(C)ccc2c1C(=O)C(=O)C(C(C)C)=C2"
label_value = 1

[[record]]
compound = "O=C(c1ccccc1)c1ccc2[nH]c(-c3c(Cl)c(Cl)c(Cl)c(Cl)c3-c3nnc(-c4ccccc4)o3)nc2c1"
label_value = 0

[[record]]
compound = "CC(C)OP(=O)(OC(C)C)c1ccc2c(c1)OCCOCCOCCOCCO2"
label_value = 0

[[record]]
compound = "OC1CSCCSCCCSCCSC1"
label_value = 0

[[record]]
compound = "CCOC(=O)Cc1csc(Nc2ccc(OCC)cc2)n1"
label_value = 0

[[record]]
compound = "C/C(=N/O)c1sc(-c2nc(C)c(/C(C)=N\\O)s2)nc1C"
label_value = 0

[[record]]
compound = "COc1nc(NC2OCC(OC(C)=O)C(OC(C)=O)C2OC(C)=O)c(/N=C\\C=N\\c2c(NC3OCC(OC(C)=O)C(OC(C)=O)C3OC(C)=O)nc(OC)n(C)c2=O)c(=O)n1C (centres undefined)"
label_value = 0

[[record]]
compound = "CNS(=O)(=O)NNS(=O)(=O)c1ccc(Cl)cc1"
label_value = 0

[[record]]
compound = "Cc1[nH]c(/C=C2\\C(=O)Nc3ccccc32)c(C)c1CCC(=O)O [ORANTINIB]"
label_value = 0

[[record]]
compound = "O=C(Nc1sccc1S(=O)(=O)c1ccc(Cl)cc1)c1ccc(Cl)cc1"
label_value = 0

[[record]]
compound = "COc1cc(/C=N/c2nc3cc4sc(/N=C/c5cc(OC)c(OC)c(OC)c5)nc4cc3s2)cc(OC)c1OC"
label_value = 0

[[record]]
compound = "CN(C)c1ccc(/C=C(\\NC(=O)c2ccccc2)C(=O)Nc2ccccc2C(=O)NCc2ccccc2)cc1"
label_value = 0

[[record]]
compound = "Brc1cccc[n+]1-c1ccc2cc(-[n+]3ccccc3Br)ccc2c1"
label_value = 0

[[record]]
compound = "CNC(=S)NN=C1NCCCCN1"
label_value = 0

[[record]]
compound = "CCCCC/C=C1\\CCC(CN(C)C)C1=O (centres undefined)"
label_value = 1

[[record]]
compound = "O=C1C(=CNc2ccc([N+](=O)[O-])cc2)C(=O)N(c2ccccc2)C(=O)N1c1ccccc1"
label_value = 0

[[record]]
compound = "C/C=C/C=N/N(c1nnc(-c2ccccc2)c(-c2ccccc2)n1)S(=O)(=O)c1ccc(C)cc1"
label_value = 0

[[record]]
compound = "O=C(NCCS(=O)(=O)N1C(=O)C2CCCN2C(=O)[C@@H]1Cc1ccccc1)OCc1ccccc1 (some centres undefined)"
label_value = 0

[[record]]
compound = "Cc1ccc(C2(c3ccc(F)cc3)OC(=O)c3ccccc32)c(O)c1 (centres undefined)"
label_value = 0

[[record]]
compound = "O=C1C(Br)=C(Br)C(=O)c2c(O)ccc(O)c21"
label_value = 1

[[record]]
compound = "O=C(NC(=S)Nc1ccc2c(c1)Sc1ccccc1O2)c1ccc([N+](=O)[O-])cc1"
label_value = 0

[[record]]
compound = "COc1cc(COC(=O)NC(Cc2cccs2)C(=O)O)c([N+](=O)[O-])cc1OC (centres undefined)"
label_value = 0

[[record]]
compound = "O=C1C=C(Cl)C(=O)C(c2ccc(Cl)cc2)=C1"
label_value = 0

[[record]]
compound = "CCOC(=O)c1cc(C2=C(S)N(CC(C)CC)CC2)c(C(=O)CC)[nH]1 (centres undefined)"
label_value = 0

[[record]]
compound = "CCCC1=NC(C(F)(F)F)(C(F)(F)F)N=C(N2CCOCC2)O1"
label_value = 0

[[record]]
compound = "COc1ccc2c(c1)CCC(CN1CCN(CCOC(c3ccccc3)c3ccccc3)CC1)C2O (centres undefined)"
label_value = 0

[[record]]
compound = "C[C@]12CC[C@H]3[C@@H](CCC4=CC(=O)C=C[C@@]43OC(=O)C(F)(F)F)[C@@H]1CCC2=O"
label_value = 0

[[record]]
compound = "O=C1C2c3[nH]c4ccccc4c3[C@@H]3CCCCCCCCCCC3C2C(=O)N1c1ccccc1 (some centres undefined)"
label_value = 0

[[record]]
compound = "COc1ccc(C2CC(c3ccc4ccccc4c3O)=NN2)cc1OC (centres undefined)"
label_value = 0

